system: HL-60; experiment: NCI tumour cell line growth inhibition, 48 h
Active and inactive are the calls of the source. Cut-off read from the data, not from the text of the source: active = GI50 up to about 1.1 µM and inactive = higher.
Hi there, use one of these labels in your reply, thanks! active, inactive

[[record]]
molecule = "NS(=O)(=O)c1ccc(NC(=O)c2cc([N+](=O)[O-])cc([N+](=O)[O-])c2)cc1"
target_under_test = "HL-60"
label_value = "inactive"

[[record]]
molecule = "C=C(CN(C)C)C(=O)c1ccccc1"
target_under_test = "HL-60"
label_value = "active"

[[record]]
molecule = "O=C(C(=O)c1ccc(Cc2ccc(C(=O)C(=O)c3ccccc3)cc2)cc1)c1ccccc1"
target_under_test = "HL-60"
label_value = "inactive"

[[record]]
molecule = "OC1[C@@H]2[C@@H](O)CCCN2C[C@@H](O)[C@H]1O (stereo not given in full)"
target_under_test = "HL-60"
label_value = "inactive"

[[record]]
molecule = "CCOC(=O)c1ccc(NCC#CCN2CCOCC2)cc1"
target_under_test = "HL-60"
label_value = "inactive"


Problem: Hey, what did the test say about COc1ccc(C2SCc3nc4ccccc4n32)cc1 (stereo not given) ?
Solution: inactive

---

For each of the compounds below, state its GI50.
tested on: HOP-62; assay: NCI tumour cell line growth inhibition, 48 h
Activity calls are given as the source filed them. Cut-off read from the data, not from the text of the source: active = GI50 up to about 1.1 µM and inactive = higher.

Example cases with answers are listed next.
[[record]]
compound = "CCN1CSC(=S)N(CC)C1"
target_under_test = "HOP-62"
experimental_readout = "GI50"
result = "24 µM (inactive)"

[[record]]
compound = "O=S(O)CCCSSc1ccccc1"
target_under_test = "HOP-62"
experimental_readout = "GI50"
result = "57.7 µM (inactive)"

[[record]]
compound = "CCOC(=O)c1ccc(NCC#CCN2CCOCC2)cc1"
target_under_test = "HOP-62"
experimental_readout = "GI50"
result = "> 100 µM (inactive)"


Go through the list and state GI50 for each entry.
1. COC(=O)/C=c1/c2ccccc2n2nc3ccccc3c12
2. COc1ccc(Nc2nc3cc(C(F)(F)F)ccc3nc2C(=O)O)cc1
3. COc1ccc(C2=CC(C(C)=C(C(N)=O)C(N)=O)C=C(c3ccc(Br)cc3)C2)c(OC)c1 (configuration not stated)
4. CC(=O)C1C(c2ccc(N(C)C)cc2)c2cc3c(cc2OC1(C)O)OCO3 (configuration not stated)

Solution:
1: > 100 µM (inactive); 2: 14.9 µM (inactive); 3: > 100 µM (inactive); 4: > 100 µM (inactive)

---

test system: MDA-MB-231; experiment: NCI tumour cell line growth inhibition, 48 h
Active and inactive are the calls of the source. No stated cut-off is given here; in the data, active = GI50 up to about 1.1 µM and inactive = higher.
In this exercise, the only acceptable responses are true = active, false = inactive

[[record]]
line_notation = "O=c1[nH]c(=O)n(COCCO)c2ccsc12"
target_under_test = "MDA-MB-231"
label_value = "false"

[[record]]
line_notation = "COc1ccc2nc3cc(Cl)ccc3c(NCCCNCCCNc3c4ccc(Cl)cc4nc4ccc(OC)cc34)c2c1"
target_under_test = "MDA-MB-231"
label_value = "true"

[[record]]
line_notation = "COC(=O)Cc1c([C@H]2[C@H](CC(=O)OC)c3ccccc3N2C(C)=O)[nH]c2ccccc12"
target_under_test = "MDA-MB-231"
label_value = "false"

[[record]]
line_notation = "C=CCN(c1cc(OCc2ccccc2)c2[nH]cc(C)c2c1)S(C)(=O)=O"
target_under_test = "MDA-MB-231"
label_value = "false"

[[record]]
line_notation = "C=CCOCn1ccc(N)nc1=O"
target_under_test = "MDA-MB-231"
label_value = "false"


Consider now this further compound.
Problem: Field: outcome | Entry: C=C(CN(C)C)C(=O)c1ccc(Oc2ccccc2)cc1
Solution: false
